Values compiled from the supplement of paper PMC9732359.

Assay: protein stability index of a GFP-peptide fusion (yeast GPS) (PSI 1-4); higher = more stable; sorted into four equal gates, so the index is relative within each strain
Conditions: doa10∆
Measured protein stability index by item

primary_sequence: ASLNLLQLAPGAHLGRF [RPL4A]
protein stability index: 3.33
--
primary_sequence: NLTRGINLRKVAEKMNG [RPT6]
protein stability index: 1.63
--
primary_sequence: VDIYTHFTSPIRRYCDV [DIS3]
protein stability index: 1.61
--
primary_sequence: TPTDVIGVVSLTNGVTE [RRP6]
protein stability index: 3.21
--
primary_sequence: VDPASAPNHSPEIDNLD [RRP6]
protein stability index: 3.1
--
primary_sequence: VNDNDERAARVVKGRVE [RPO31]
protein stability index: 3.17
--
primary_sequence: EEEVTDQLEDLREHFKN [QCR6]
protein stability index: 3.14
--
primary_sequence: ANVFRLENQKDLVIVDE [MTW1]
protein stability index: 3.49
--
primary_sequence: MDRTQTFIKDCLFTKCL [POP4]
protein stability index: 1.75
--
primary_sequence: QQKLNTRMQRGHRADVG [REC8]
protein stability index: 2.84
--
primary_sequence: AAVETLYQDMAARHRAR [RPL20A]
protein stability index: 2.96
--
primary_sequence: EQSNSRKRTRSEAEQID [YCG1]
protein stability index: 3.35
--
primary_sequence: PDRHVIFLAERRILPKP [RPS7B]
protein stability index: 2.81
--
primary_sequence: NEPAARLGSEADAKAFL [FAS2]
protein stability index: 3.45
--
primary_sequence: PKGATYGKPTNQGVNEL [RPL15A]
protein stability index: 3.02
--
primary_sequence: QKETQKVTKIWSKESNY [PRP28]
protein stability index: 1.63
--
primary_sequence: ASRDKTLISWKLTGDDQ [ASC1]
protein stability index: 1.32
--
primary_sequence: PKWERVFLFDIEKVDRE [RRI2]
protein stability index: 2.4
--
primary_sequence: KKHGKTDYFLPKNYSLH [YJL039C/NUP192]
protein stability index: 2.76
--
primary_sequence: LQKRVIEHNLRVISEYY [RPN5]
protein stability index: 2.02
--
primary_sequence: MSGGKGGKAGSAAKASQ [HTA1]
protein stability index: 3.18
--
primary_sequence: PLAPAPINLPPQIAQLP [SNF5]
protein stability index: 1.8
--
primary_sequence: AVATPKAEVTQLSNGIV [COR1]
protein stability index: 2.77
--
primary_sequence: VPVRDGVTIEFSTNVKD [RPL9A]
protein stability index: 1.35
--
primary_sequence: TSAGIMDHEEARRKHVS [RPS22A]
protein stability index: 2.87
--
primary_sequence: KQLQQPKSSPLKKNNYN [SIR4]
protein stability index: 3.03
--
primary_sequence: ELMRIISRNGDTSYKID [SMC1]
protein stability index: 2.83
--
primary_sequence: LTYDKDLTNNPQDDDSQ [MTR3]
protein stability index: 2.8
--
primary_sequence: AAAVSGNNASDEPSRKK [SSN3]
protein stability index: 2.68
--
primary_sequence: YLACKVEECPQYIRTLV [SSN8]
protein stability index: 1.25
--
primary_sequence: KKMMNTSDSESTLYKYL [SWI3]
protein stability index: 2.94
--
primary_sequence: TRVHQLMLEDAVTEREV [MCD1]
protein stability index: 3.35
--
primary_sequence: NNDGSYGLFLKYHKEQF [SRB8]
protein stability index: 2.61
--
primary_sequence: DGDASKPAFSFGAKSDE [YJL041W/NSP1]
protein stability index: 3.32
--
primary_sequence: VSTEGNVPQTLAPVPYE [RPL21A]
protein stability index: 3.19
--
primary_sequence: LMQNMMNMFGGGMGGGM [SRP54]
protein stability index: 1.85
--
primary_sequence: IESALKSKLDQDSTSEN [RPN2]
protein stability index: 2.76
--
primary_sequence: KNEPDYSKAKYPDLQPF [CDC53]
protein stability index: 2.35
--
primary_sequence: LVSEARTLWPEFIPPDP [SSN8]
protein stability index: 2.61
--
primary_sequence: AAKEGLALSSNISRDFQ [COR1]
protein stability index: 2.71
--
primary_sequence: TFFPRCIIAVSCTLLER [POP1]
protein stability index: 1.31
--
primary_sequence: KLKQQSSTDIPSYTHVL [RRI1]
protein stability index: 2.29
--
primary_sequence: SYFKNSVIVKFHSEPDR [LIN1]
protein stability index: 2.23
--
primary_sequence: KGLKENDVAVEKTGKSA [BRR2]
protein stability index: 3.03
--
primary_sequence: NVRSVIRSSRSRGIVIG [RPP1]
protein stability index: 3
--
primary_sequence: TIFGGVDKNGAHLYMLE [PRE10]
protein stability index: 2.88
--
primary_sequence: NQSAYEWNGKSFQKKSN [ISW2]
protein stability index: 3.16
--
primary_sequence: RAASIRARVKAFPKDDR [RPL3]
protein stability index: 1.22
--
primary_sequence: GAGSAFGFSSSGTAATG [YOR098C/NUP1]
protein stability index: 3.47
--
primary_sequence: YHQLLSDIESLEALMDI [SRB8]
protein stability index: 2.9

====

Test: protein stability index of a GFP-peptide fusion (yeast GPS) (PSI 1-4); higher = more stable; sorted into four equal gates, so the index is relative within each strain
Settings: pdr5∆

primary_sequence: ISVTRQVVLGGTSKYLI [SMC2]
protein stability index: 2.96
--
primary_sequence: DLDETTQTFNGSIFTHE [YML031W/NDC1]
protein stability index: 2.85
--
primary_sequence: HVLNKVTLASILTTAVG [RPN1]
protein stability index: 1.41
--
primary_sequence: GKHSQEQNSSSAKPSQI [SIR4]
protein stability index: 3.24
--
primary_sequence: ELGISLEHPYGKEVEVL [SNU114]
protein stability index: 2.34
--
primary_sequence: EEAKEESDDDMGFGLFD [RPP1A]
protein stability index: 3.15
--
primary_sequence: DLPISSTDNEAITISNS [SMC1]
protein stability index: 2.89
--
primary_sequence: MGGPKQKGITSYAVSPY [QCR8]
protein stability index: 2.45
--
primary_sequence: KDNVEHLVMRAISLGLL [RPN9]
protein stability index: 2.92
--
primary_sequence: GRLRNKSHKQTIVTGGG [RPP1]
protein stability index: 2.89
--
primary_sequence: DYITEAVFKIVLQPLLP [SNU114]
protein stability index: 1.31
--
primary_sequence: NSDDFFMDNSYDIDEID [ESC2]
protein stability index: 2.64
--
primary_sequence: GSLWVEFCDEPSVGVKT [RPB5]
protein stability index: 2.86
--
primary_sequence: TFENTNNTEKNDVTNKN [SIR4]
protein stability index: 2.89
--
primary_sequence: CFMHLLVQLFLWDSKEL [RPN3]
protein stability index: 1.6
--
primary_sequence: ESSYTEVTKLLKNEGID [SMC4]
protein stability index: 3.17
--
primary_sequence: LLHVAVSDSNDDVRRAA [RPN2]
protein stability index: 3.22
--
primary_sequence: GGKAGSAAKASQSRSAK [HTA1]
protein stability index: 3.14
--
primary_sequence: SAMPAPYMPYYYYYHPM [DSN1]
protein stability index: 2.87
--
primary_sequence: SNVYLSLVNSYIIDSPQ [COB]
protein stability index: 1.81
--
primary_sequence: NTHYHADYRLILTGTPL [SNF2]
protein stability index: 1.71
--
primary_sequence: KIMVAEWYLSHLCSGIL [SRB8]
protein stability index: 1.39
--
primary_sequence: QMTWRQWLNNALKRSYG [POP8]
protein stability index: 3.08
--
primary_sequence: NEHSTSYTFRSEKGLLS [FAS1]
protein stability index: 2.36
--
primary_sequence: ITKDHKVLARQQLQVLA [FAS2]
protein stability index: 1.45
--
primary_sequence: VASSTNFTSPTAVVNNA [SWI1]
protein stability index: 2.56

====

Assay: protein stability index of a GFP-peptide fusion (yeast GPS) (PSI 1-4); higher = more stable; sorted into four equal gates, so the index is relative within each strain
Details: doa10∆

primary_sequence: EYADNDEDKFKKLKPIV [PRP28]
protein stability index: 2.82
--
primary_sequence: ESWFKALAGSEINWRHA [FAS1]
protein stability index: 3.31
--
primary_sequence: NLQREIDQAHVSEITKL [RPN14]
protein stability index: 2.61
--
primary_sequence: TVVISQKKVPDKLLDPT [SCL1]
protein stability index: 2.85
--
primary_sequence: ICLMTLIETVFVKNIRM [RPN9]
protein stability index: 1.22
--
primary_sequence: VELPYGAHGYSGFYTFS [PRE1]
protein stability index: 2.92
--
primary_sequence: MRELGLIQSTEFPSITS [YOR098C/NUP1]
protein stability index: 3.12
--
primary_sequence: GKTSFFQALGVPTKIAR [RPP0]
protein stability index: 3.24
--
primary_sequence: DPGRYNKVCRIEAASTT [RPB8]
protein stability index: 2.41
--
primary_sequence: ELAAKEEPAKEEAPAPT [FAS2]
protein stability index: 3.08
--
primary_sequence: QWLNNALKRSYGIFGEG [POP8]
protein stability index: 2.8
--
primary_sequence: VPKLESSRTKFWSFLDS [YJL039C/NUP192]
protein stability index: 1.61
--
primary_sequence: RQPVEGRSRDGGLRFGE [RPB2]
protein stability index: 2.86
--
primary_sequence: LGVKNLGLCCLLDVKLA [YCG1]
protein stability index: 1.54
--
primary_sequence: RDEMSKAELPQWYTLQS [MED8]
protein stability index: 2.92
--
primary_sequence: EMVENSSENNQIILAYI [SRP68]
protein stability index: 3.21
--
primary_sequence: DLISEILKWVQWSRIVL [MED1]
protein stability index: 3.48
--
primary_sequence: SEISDGKLKRCSRCGSV [SIN4]
protein stability index: 3.33
--
primary_sequence: QNSKEKNGLGLNFSTTA [MED2]
protein stability index: 2.9
--
primary_sequence: EKIMILLVPLALLTKRL [CSN12]
protein stability index: 1.95
--
primary_sequence: SASTSATGISGSVSEET [ECM29]
protein stability index: 3.34
--
primary_sequence: GNIFSNIGTPSFNMAQI [SNF5]
protein stability index: 2.58
--
primary_sequence: QMMSKGIGALFTQQELQ [RPC34]
protein stability index: 3.3
